target: GLUT1 (Homo sapiens, UniProt P11166); assay: Indirect measurement of GLUT1 activity by quantification of intracellular ATP levels (glucose induced ATP increase); format: cell-based; set-up: endogenous in cells; host or cells: DLD1 or CHO-K1; conditions: read-out: IC50 regarding glucose induced ATP increase (GLUT1 inhibition)
Recorded IC50 values for a group of compounds are listed next.
Please state the figure in nM; there is no need to write the unit.

Cc1c(NC(=O)c2cc(C(N)=O)nc3ccc(Br)cc23)c(C(F)(F)F)nn1Cc1ccc(C#N)cc1; 3.6

Asked: Can you look up the measured IC50 of Cc1c(NC(=O)c2cc(C(N)=O)nc3ccc(Br)cc23)c(C(F)(F)F)nn1Cc1ccc(C#N)cn1 for me?
Given back: 1.2

Asked: Which measured IC50 value corresponds to Cc1c(NC(=O)c2cc(C(N)=O)nc3cccc(F)c23)c(C(F)(F)F)nn1Cc1ccc(C#N)cc1 ?
Given back: 1

Asked: # lookup: IC50 of COc1ccccc1Cn1nc(C(F)(F)F)c(NC(=O)c2cc(C(N)=O)nc3cccc(F)c23)c1C
Given back: 69.6

Asked: Find the recorded IC50 belonging to Cc1nn(Cc2ccc(F)c(F)c2)c(C)c1NC(=O)c1cc(C(F)(F)F)nc2ccc(Br)cc12 and report it.
Given back: 44.4

Asked: Report IC50 for Cc1ccc2nc(C)cc(C(=O)Nc3c(C)nn(Cc4ccc(C#N)c(F)c4)c3C)c2c1 please.
Given back: 83.3

Asked: Looking for the measured IC50 of COCCCS(=O)(=O)N1CCC(Cn2nc(C)c(NC(=O)c3cc(C(N)=O)nc4ccccc34)c2C)CC1 , can you help?
Given back: 60.8

* * *

Entries and their IC50 values follow.
Target: UniProt:P11166
Sequence (P11166 1-492): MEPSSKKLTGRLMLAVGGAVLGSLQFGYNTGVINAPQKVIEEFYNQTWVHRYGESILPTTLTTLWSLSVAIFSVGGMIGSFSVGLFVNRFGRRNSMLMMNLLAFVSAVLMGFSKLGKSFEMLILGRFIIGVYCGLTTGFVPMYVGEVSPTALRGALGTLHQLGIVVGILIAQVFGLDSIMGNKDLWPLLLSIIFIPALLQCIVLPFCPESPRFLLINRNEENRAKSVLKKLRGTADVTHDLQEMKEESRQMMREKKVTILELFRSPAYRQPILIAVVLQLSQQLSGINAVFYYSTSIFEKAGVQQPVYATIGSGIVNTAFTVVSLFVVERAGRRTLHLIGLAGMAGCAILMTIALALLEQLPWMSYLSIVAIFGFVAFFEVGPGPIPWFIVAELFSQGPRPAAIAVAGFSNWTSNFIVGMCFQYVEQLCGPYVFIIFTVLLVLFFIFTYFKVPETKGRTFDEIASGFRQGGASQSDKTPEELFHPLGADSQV
Experiment: Indirect measurement of GLUT1 activity by quantification of intracellular ATP levels (glucose induced ATP increase)
Assay type: cell-based
Design: endogenous in cells; host or cells: DLD1 or CHO-K1
Details: read-out: IC50 regarding glucose induced ATP increase (GLUT1 inhibition)
Excerpt: Indirect Measurement of GLUT1 and GLUT2 Activity by Quantification of Intracellular ATP Levels It is well known that a combination of small-molecule inhibitors of mitochondrial electron transport chain and glucose catabolism synergistically suppress ATP production and impair cellular viability (Ulanovskaya et al., 2008, 2011; Liu, et al. 2001). We therefore used DLD1 or CHO-K1 cells in combination with an oxidative phosphorylation inhibitor to identify GLUT1 and GLUT2 inhibitors. […]
Record the value in nM, omitting the unit from your answer.

Example entries and their recorded answers appear below.
Cc1ccc(CNC(=O)c2ccc(Cn3nc(C)c(NC(=O)c4cc(C(F)(F)F)nc5ccc(Br)cc45)c3C)cc2)cc1 [Example 1108]; 52.5
Cc1nn(Cc2ccc(F)cc2)c(C)c1NC(=O)c1cc(C(F)(F)F)nc2ccc(-c3ccccc3)cc12 [Example 166]; 41.1
Cc1nn(Cc2ccc(C(F)(F)F)cc2)c(C)c1NC(=O)c1cc(C(N)=O)nc2cc(F)ccc12 [Example 1599]; 6.5

Proceed to the following item.
Asked: For the compound shown here, Cc1ccc2nc(C)cc(C(=O)Nc3c(C)nn(Cc4ccccc4F)c3C)c2c1 [Example 112] , give the reported IC50.
Given back: 771

* * *

Biological target: GLUT1 (Homo sapiens)
Sequence (P11166 1-492): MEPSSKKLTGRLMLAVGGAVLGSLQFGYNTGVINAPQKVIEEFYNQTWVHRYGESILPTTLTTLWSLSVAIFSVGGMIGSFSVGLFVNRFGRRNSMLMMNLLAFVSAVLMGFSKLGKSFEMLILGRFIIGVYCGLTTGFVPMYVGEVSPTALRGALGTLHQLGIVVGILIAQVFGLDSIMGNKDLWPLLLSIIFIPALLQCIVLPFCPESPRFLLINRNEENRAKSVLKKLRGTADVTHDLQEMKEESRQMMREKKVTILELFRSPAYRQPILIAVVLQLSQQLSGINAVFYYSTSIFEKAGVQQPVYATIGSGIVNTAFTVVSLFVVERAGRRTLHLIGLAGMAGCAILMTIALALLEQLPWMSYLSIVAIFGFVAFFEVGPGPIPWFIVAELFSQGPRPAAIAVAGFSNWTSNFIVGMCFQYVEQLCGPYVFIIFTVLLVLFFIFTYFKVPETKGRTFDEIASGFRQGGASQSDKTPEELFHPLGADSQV
Test: Indirect measurement of GLUT1 activity by quantification of intracellular ATP levels (glucose induced ATP increase)
Type: cell-based
Design: endogenous in cells; host or cells: DLD1 or CHO-K1
Details: read-out: IC50 regarding glucose induced ATP increase (GLUT1 inhibition)
measured property: IC50
Form field: result (number plus unit)

Before answering, review these 3 worked examples.
Cc1c(NC(=O)c2cc(C(N)=O)nc3cc(F)ccc23)c(C(F)(F)F)nn1C(C)c1ccccc1 (racemic) [Example 334]; 7.5 nM
Cc1cc(C(=O)Nc2c(C)nn(Cc3ccc(F)cc3)c2C)c2cc(C#N)ccc2n1; 1320 nM
Cc1cc(C)n(CCn2nc(C)c(NC(=O)c3cc(C(F)(F)F)nc4ccc(Br)cc34)c2C)n1; 1110 nM

# ---- query compound ----
Asked: Which IC50 reading was recorded for the compound Cc1ccc2nc(C)cc(C(=O)Nc3c(C)nn(Cc4cccc(OC(F)(F)F)c4)c3C)c2c1 ?
Given back: 938 nM

* * *

target: GLUT1 (Homo sapiens, UniProt P11166); assay: Indirect measurement of GLUT1 activity by quantification of intracellular ATP levels (glucose induced ATP increase); assay type: cell-based; parameters: endogenous in cells; host or cells: DLD1 or CHO-K1; settings: read-out: IC50 regarding glucose induced ATP increase (GLUT1 inhibition)
measured property: IC50 (nM)
Write the number in nM without appending the unit.

Would you please look over these solved cases?
Cc1c(NC(=O)c2cc(C(N)=O)nc3cccc(F)c23)c(C(F)(F)F)nn1Cc1ncccc1C#N; 12.6
Cc1nn(Cc2ccc(CC(=O)NCCN3CCOCC3)cc2)c(C)c1NC(=O)c1cc(C(F)(F)F)nc2ccc(Br)cc12; 1500
Cc1nn(Cc2ccc(C(=O)NC3CC3)cc2)c(C)c1NC(=O)c1cc(C(F)(F)F)nc2ccc(Br)cc12; 2.7

Asked: Given the entry Cc1nn(Cc2ccc(C(=O)NCc3cccnc3)cn2)c(C)c1NC(=O)c1cc(C(F)(F)F)nc2ccc(Br)cc12 , report its measured IC50.
Given back: 189

* * *

Target: GLUT1 (Homo sapiens, UniProt P11166)
Sequence (P11166 1-492): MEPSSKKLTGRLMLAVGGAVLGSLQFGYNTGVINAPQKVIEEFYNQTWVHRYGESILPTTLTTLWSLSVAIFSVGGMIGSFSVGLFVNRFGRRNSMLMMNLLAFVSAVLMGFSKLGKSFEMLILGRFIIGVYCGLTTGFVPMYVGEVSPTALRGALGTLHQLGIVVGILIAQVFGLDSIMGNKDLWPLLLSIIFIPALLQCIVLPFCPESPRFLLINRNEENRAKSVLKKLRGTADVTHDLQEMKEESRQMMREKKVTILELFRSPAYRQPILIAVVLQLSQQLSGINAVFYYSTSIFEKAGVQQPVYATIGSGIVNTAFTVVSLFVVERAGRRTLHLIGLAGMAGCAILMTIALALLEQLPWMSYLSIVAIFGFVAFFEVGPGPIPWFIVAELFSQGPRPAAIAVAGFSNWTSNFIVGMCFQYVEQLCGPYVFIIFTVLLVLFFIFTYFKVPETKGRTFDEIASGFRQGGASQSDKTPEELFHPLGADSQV
Assay: Indirect measurement of GLUT1 activity by quantification of intracellular ATP levels (glucose induced ATP increase)
Assay type: cell-based
Parameters: endogenous in cells; host or cells: DLD1 or CHO-K1
Settings: read-out: IC50 regarding glucose induced ATP increase (GLUT1 inhibition)
Catalogue of molecules with associated log10 of IC50
Annotation: log10 of IC50, nM basis.

Solved entries:
Cc1c(NC(=O)c2cc(C(N)=O)nc3ccccc23)c(C(F)(F)F)nn1Cc1ccccc1OC(F)(F)F [Example 1705]; 2.24
CCc1noc(Cn2nc(C(F)(F)F)c(NC(=O)c3cc(C(N)=O)nc4cc(F)ccc34)c2C)n1 [Example 1537]; 2.27
Cc1c(NC(=O)c2cc(C(F)(F)F)nc3ccc(Br)cc23)c(C(F)(F)F)nn1Cc1ccc(C(=O)N2CCOCC2)cn1 [Example 1200]; 2.61
CNC(=O)c1c(NC(=O)c2cc(C(N)=O)nc3ccccc23)c(C)nn1Cc1ccc(F)cc1 [Example 1258]; 3.31
Cc1nn(Cc2ccccn2)c(C)c1NC(=O)c1cc(C(F)(F)F)nc2ccc(Br)cc12 [Example 70]; 2.24

Asked: Data request, read-out log10 of IC50, for Cc1nn(Cc2ccc(Cl)s2)c(C)c1NC(=O)c1cc(C(F)(F)F)nc2ccc(Br)cc12 [Example 180]
Given back: 1.97

Asked: Looking for the measured log10 of IC50 of Cc1nn(Cc2ccc(C#N)cc2F)c(C)c1NC(=O)c1cc(C(F)(F)F)nc2ccc(Br)cc12 [Example 1349] , can you help?
Given back: 0.88
